Quick reference: TGI of the listed items.
# Test system: HL-60(TB) leukemia
# ASSAY INFO: NCI tumour cell line growth inhibition, 48 h
READOUT TYPE: TGI

compound="OC1CCN2Cc3ccccc3N=C12 (stereo unspecified)" assay_value="> 100 µM"
compound=Cc1c2ccccc2c(/C=N/NC(=O)CSCC(=O)N/N=C/c2c3ccccc3c(C)c3ccccc23)c2ccccc12 assay_value="> 100 µM"
compound=CCC(=O)N1C(=S)SC[C@H]1C(=O)OC assay_value="> 100 µM"
compound=O=C(Nc1ccc(Nc2ccc3c(c2)C(=O)c2ccccc2C3=O)c2c1C(=O)c1ccccc1C2=O)c1ccccc1 assay_value="> 100 µM"
compound="O=C1CC(Nc2ccccc2)c2c(Cl)sc(Cl)c21 (stereo unspecified)" assay_value="1.36 µM"
compound=CCOC(=O)CCCN assay_value="> 100 µM"
compound=COc1cc2ncnc(Nc3cccc(Br)c3)c2cc1OC assay_value="> 75.2 µM"
compound=C[N+](C)(N)Cc1nc(-c2ccc(Cl)cc2)no1 assay_value="> 100 µM"
compound=Fc1ccc(F)c(C=NC23CC4CC(CC(C4)C2)C3)c1 assay_value="6.94 µM"
compound=CCN(CC)c1c(-c2c(OC(C)C)c(=O)c2=O)c(=O)n2ccsc2c1OC(C)=O assay_value="> 100 µM"
compound=C[C@]12C(=O)OC[C@H](c3ccccc3)N1C(=O)N(Cc1ccccc1)[C@@H]2CO assay_value="> 100 µM"

---

# Test system: SW-620 colon
# ASSAY INFO: NCI tumour cell line growth inhibition, 48 h
READOUT TYPE: TGI (µM)

molecule=N#Cc1nc2cc(Cl)c(Cl)cc2nc1-c1ccc(Cl)cc1 unit_info=µM readout_qualifier=> assay_value=100
molecule=CN1CCN(c2ccc3nc(-c4[nH]ncc4Nc4ncnc5[nH]ccc45)[nH]c3c2)CC1 unit_info=µM readout_qualifier== assay_value=3.47
molecule="CC(C)N1CCOC(c2ccc(O)c(O)c2)C1 (stereo not given)" unit_info=µM readout_qualifier=> assay_value=100
molecule=CCCCCCc1cc2cc(C(=O)Nc3nc(C45CC6CC(CC(C6)C4)C5)cs3)c(=O)oc2cc1O unit_info=µM readout_qualifier=> assay_value=100
molecule=O=C(O)CN(CCN(CC(=O)O)CC(=O)O)CCN(CC(=O)O)CC(=O)O unit_info=µM readout_qualifier== assay_value=19

---

# System: MDA-MB-231 breast
# ASSAY INFO: NCI tumour cell line growth inhibition, 48 h
READOUT TYPE: GI50

molecule=COc1ccc2c(c1[N+](=O)[O-])CC[C@@H]1[C@@H]2CC[C@]2(C)C(=O)CC[C@@H]12 readout_type=GI50 assay_value="400 µM"
molecule=Clc1ccc2c(NCCCCNc3nc(N4CCOCC4)nc4ccccc34)ccnc2c1 readout_type=GI50 assay_value="2.1 µM"
molecule=N#Cc1nc2cc(Cl)c(Cl)cc2nc1-c1ccc(Cl)cc1 readout_type=GI50 assay_value="22.3 µM"
molecule=Cc1ccc(/C=C/C(=O)c2ccc(F)cc2)s1 readout_type=GI50 assay_value="10.2 µM"
molecule=COc1ccccc1C1C(C#N)=C(N)SC(N)=C1C#N readout_type=GI50 assay_value="21.6 µM"
molecule=CN1CCN(CCCOC(=O)c2c3c(n4ccccc24)C(=O)c2ncccc2C3=O)CC1 readout_type=GI50 assay_value="2.53 µM"
molecule=CC(C)Cn1cnc2c(N)nc3ccccc3c21 readout_type=GI50 assay_value="46 µM"
molecule=C/C(=C1\C(=O)Nc2ccccc21)c1cccc(/C(C)=C2/C(=O)Nc3ccccc32)n1 readout_type=GI50 assay_value="11.5 µM"
molecule=CCCN1CCC(Oc2cc(Nc3nc(Nc4cccc(F)c4C(N)=O)c4cc[nH]c4n3)c(OC)cc2Cl)CC1 readout_type=GI50 assay_value="2.16 µM"
molecule="COC1C(OC(=O)/C=C/C=C/C=C/C=C/C(=O)O)CCC2(CO2)C1C1(C)OC1CC=C(C)C (stereo unspecified)" readout_type=GI50 assay_value="0.525 µM"
molecule=CN1CCN(c2cc(F)c(NC3=C(Cl)C(=O)c4ncccc4C3=O)c(F)c2)CC1 readout_type=GI50 assay_value="1.94 µM"
molecule=Oc1ccc(CCNc2nc3ccccc3c3[nH]c4ccccc4c23)cc1O readout_type=GI50 assay_value="2.98 µM"
molecule=CCOc1cc(/C=C/C(=O)CC(=O)/C=C/c2ccc(OC(=O)CNc3nc4ccc(OC)cc4s3)c(OCC)c2)ccc1OC(=O)CNc1nc2ccc(OC)cc2s1 readout_type=GI50 assay_value="13.8 µM"
molecule=CN1CCC2(CC1)C(=O)Nc1cc(NC(=O)c3ccc4c(c3)C[C@@H]3C(C)(C)[C@H](O)[C@H](F)C[C@@]3(C)O4)ccc12 readout_type=GI50 assay_value="3.36 µM"
molecule="CCCCCCCCCCCC(c1ccccc1)[N+](C)(C)C (stereo unspecified)" readout_type=GI50 assay_value="1.68 µM"
molecule="COc1cccc2c1C(=O)c1c(O)c3c(c(O)c1C2=O)C[C@@](O)(/C(C)=N/NC(=O)c1cccc([N+](=O)[O-])c1)C[C@@H]3OC1CC(N)C(O)C(C)O1 (stereo partly specified)" readout_type=GI50 assay_value="1.59 µM"

---

# Test system: CAKI-1 renal
# ASSAY INFO: NCI tumour cell line growth inhibition, 48 h
*1 amine or outer side, *2 acyl side, *3 side chain or, on linkers, in order; H or OH if unused. Where a SMILES comes first, the peptide text is derived from it. The star is where a group is joined. γGlu = O=C(O)[CH](CCC(=O)[*:2])N[*:1]; NHOH = ON*
Catalogue of TGI values
READOUT TYPE: TGI

compound=c1ccc(C/C(=N\Nc2nc3ccccc3[nH]2)c2ccccn2)cc1 assay_value="1.52 µM"
compound=COc1cc2c(cc1OCCCCCOc1ccc(-c3nc4ccccc4s3)cc1)N=C[C@@H]1CCCN1C2=O assay_value="> 62 µM"
compound="NC(CCC(=O)NC(CCC(=O)NO)C(=O)NCC(=O)O)C(=O)O (centres undefined) (γGlu-Glu(NHOH)-Gly-OH; configuration not given here)" assay_value="> 100 µM"
compound=COc1cc2c(c3nc4ccccc4nc13)-c1ccc(SC)c(=O)cc1[C@@H](NC(C)=O)CC2 assay_value="> 100 µM"
compound=COc1ccccc1C1C(C#N)=C(N)SC(N)=C1C#N assay_value="> 100 µM"
compound=Oc1ccc(CCNc2nc3ccccc3c3[nH]c4ccccc4c23)cc1O assay_value="22.9 µM"
compound=NC(=O)N/N=C(\Cc1cc(=O)oc2cc(O)ccc12)C(=O)Nc1ccccc1C(N)=O assay_value="> 100 µM"
compound=N#CSc1c[nH]c2ccc(/C=C/C(=O)/C=C(O)/C=C/c3ccc4[nH]cc(SC#N)c4c3)cc12 assay_value="4.1 µM"
compound="CCN(CC)CCN1C(=O)C2C3C(C)=CC(OC(C)=O)(CC3C)C2C1=O (centres undefined)" assay_value="> 100 µM"

---

# Tested on: SR leukemia
# ASSAY INFO: NCI tumour cell line growth inhibition, 48 h
READOUT TYPE: TGI

compound=CN1CCN(c2n[nH]c(=O)c3c2nnn3Cc2ccccc2)CC1 readout_type=TGI assay_value="> 100 µM"
compound=COC(=O)/C(=C(/C)c1ccco1)P(=O)(OC)OC readout_type=TGI assay_value="> 100 µM"
compound="O=C(O)C1CCCN1 (stereo unspecified)" readout_type=TGI assay_value="> 100 µM"
compound=CC(C)OC(=O)Nc1c([N+](=O)[O-])cc(C(F)(F)F)cc1[N+](=O)[O-] readout_type=TGI assay_value="> 100 µM"
compound=O=C(Nc1ccccc1/C=C/c1n[nH]c2ccccc12)c1ccccc1 readout_type=TGI assay_value="13.7 µM"
compound="COc1ccc(C2c3cc4c(cc3OC(N3CCOCC3)C2C)OCO4)cc1OC (stereo unspecified)" readout_type=TGI assay_value="> 100 µM"
compound=CCOP(=O)(OCC)/C(C#N)=C/c1nc[nH]c1C readout_type=TGI assay_value="> 100 µM"
compound=CCOc1ccc2c(c1)[n+]([O-])c(C(N)=O)c(N)[n+]2[O-] readout_type=TGI assay_value="> 100 µM"
compound=CCCSc1ccc2[nH]c(N3C(=O)/C(=C/c4ccc(O)c(OC)c4)N=C3c3ccccc3)cc2c1 readout_type=TGI assay_value="> 100 µM"
compound="CC(C)(C)c1ccc(O)c(C(O)c2ccccn2)c1 (stereo unspecified)" readout_type=TGI assay_value="> 100 µM"
compound=O=C(Nc1ccc(Nc2ccc3c(c2)C(=O)c2ccccc2C3=O)c2c1C(=O)c1ccccc1C2=O)c1ccccc1 readout_type=TGI assay_value="17.1 µM"
